Give measured sensor-assay potency score (higher = more potent) for each item. Keep answers brief.
system: PSRC1
test_protocol: pooled miR-30 sensor sort-seq; sequence = guide strand
reported_conditions: shRNA
Answers are plain numbers.

Worked examples, 3 sequences total:
| sequence | number |
| --- | --- |
| TAGGCTGAGCCTCACACCCTGG | -1.11 |
| TTGACAGAGAATCCGGAGGTAG | -1.05 |
| TCGAGTTGACAGAGAATCCGGA | 0.42 |

Would you be so kind as to report sensor-assay potency score (higher = more potent) for each listed record?
1. TCGCTGGGAAACAGGAACCTTG
2. TTTGCTACTGAAGTCTTGCTTG
3. TATCATTACTCCGGAGTCGAGG
4. TTTCCCGCACTCTGTGTCCTGC
5. TCTGGAGTCACCAACACTGTTA
6. TATTTGTTCATTTCACTGCTGG

Given back:
1: -1.78; 2: -0.274; 3: -0.921; 4: -0.995; 5: -0.586; 6: 0.584

* * *

system: ABCB11
test_protocol: pooled miR-30 sensor sort-seq; sequence = guide strand
reported_conditions: shRNA
For each entry below, report its sensor-assay potency score (higher = more potent) value.

| sequence | result |
| --- | --- |
| TTCTTCTCATCTTGTAACCTTG | -0.836 |

Batch request: sensor-assay potency score (higher = more potent) for each of the following sequences.
1. TTTGCTGTCATGACCATCTATC
2. TAGACTTATGATCTACAACAGC
3. TAGCTTTTGCATAACTTGGGGT
4. TTGACTATCATCCCGATCTGAG
5. TTGCACTCAGTACAACTGCAGA
6. TTCTTGTAACTCAACGTCGTAG

Given back:
1. -0.277
2. -1.33
3. 0.0681
4. -0.211
5. -1.15
6. -0.168

Asked: So what's the measured sensor-assay potency score (higher = more potent) for this one? TACAACTGCAGAGATCACCCTG
Given back: 0.317

* * *

system: RNF170
test_protocol: pooled miR-30 sensor sort-seq; sequence = guide strand
reported_conditions: shRNA
readout: sensor-assay potency score (higher = more potent)
Give bare numbers.

| sequence | system | number |
| --- | --- | --- |
| TAATATTAGAACTTCAAACATG | RNF170 | -0.991 |
| TAATTAATCTAAGTAATTCTGG | RNF170 | -0.536 |
| TTAATCTAAGTAATTCTGGGGA | RNF170 | 0.33 |
| TATATTATCATATAGGTACCTG | RNF170 | -0.52 |

// each sequence listed below needs its sensor-assay potency score (higher = more potent)
1. TATAACTGAATCATCATCCAGT
2. TTCCAGACAACATAGAATCAAG

Given back:
[0.606, -0.928]

Asked: Lab note: need sensor-assay potency score (higher = more potent) for TAGATCCATAATTCTCTCCATA on RNF170, anyone have it?
Given back: -0.793

* * *

system: ZNF169
test_protocol: pooled miR-30 sensor sort-seq; sequence = guide strand
reported_conditions: shRNA
readout: sensor-assay potency score (higher = more potent)
One number for each entry.

| sequence | number |
| --- | --- |
| TAGAAGGAGGGCTATCTTCTGG | -0.694 |
| ATATTGTCTGAGGAGCTGCGAG | -1.34 |
| TTGATAAGGTCTGATCTCTGGC | 0.151 |
| TAGCGCATATTGTCTGAGGAGC | -1.15 |
| TTTCTTAATGAGCTGTCGGGGC | -0.62 |

Please look at the following sequence next.
Asked: Provide value of sensor-assay potency score (higher = more potent) for this record tested with ZNF169: TTCGTCGCCTTGCTCCAGCTGT
Given back: -0.551

* * *

system: ERMAP
test_protocol: pooled miR-30 sensor sort-seq; sequence = guide strand
reported_conditions: shRNA
readout: sensor-assay potency score (higher = more potent)
Give bare numbers.

| sequence | number |
| --- | --- |
| TCAGACATCGGTAAGACCCTTG | 0.421 |
| TAGTTCTGAACAAATGACTAGA | -0.0154 |
| TATTGCAGTACAATGGTCTTGT | 0.896 |

Quick batch: sensor-assay potency score (higher = more potent) for everything below.
1. TTGTAGAAAGAGATGACTCCTG
2. TTTCTTGACAGCTTTATGGAGT
3. TTACACATCTTTGGTCCTCAGA
4. TAGTAAAGAAGAGTTCACCTTG
5. TTTGCTCTTCTTTGCTTCCAGA
6. TTCAACTTCAGTTCACTCCGGA
7. TCTCTCACTAGCACCGTCCTCC
8. TTTACTCAGATTTCCAACTTGG

Given back:
[0.279, 0.273, -0.674, 0.291, -0.875, 0.912, 0.0369, 0.208]

* * *

system: PPIL1
test_protocol: pooled miR-30 sensor sort-seq; sequence = guide strand
reported_conditions: shRNA
Classify by measured sensor-assay potency score (higher = more potent): yes (1) if it is equal to or exceeds -0.5, no (0) if it is smaller.

| sequence | label_value |
| --- | --- |
| TTACATGTCATTCTATGTCATC | no (0) |

Asked: Please tell me: is the sequence TGTAGTAACCTCGACGAGCCAA at or over -0.5 in terms of sensor-assay potency score (higher = more potent)?
Given back: yes (1)

Asked: Record TTAGCATTACATGTCATTCTAT ; criterion: sensor-assay potency score (higher = more potent) no lower than -0.5. Met?
Given back: no (0)

Asked: Form field: sensor-assay potency score (higher = more potent) at least -0.5? Entry: TAGATGCACCACCTCGACCTGT
Given back: no (0)

Asked: Is reported sensor-assay potency score (higher = more potent) greater than or equal to -0.5 here: TAGATAGATGCACCACCTCGAC
Given back: no (0)

* * *

Exercise: state measured sensor-assay potency score (higher = more potent) for each of the sequences provided.
system: CASQ1
test_protocol: pooled miR-30 sensor sort-seq; sequence = guide strand
reported_conditions: shRNA
One number for each entry.

| sequence | number |
| --- | --- |
| TTCTCAGAGTCTACCAGCCCGA | -1.38 |
| TTGAGAGTCTCTAAGAACTCGA | -0.0687 |
| TTCACCTTCAATCAATTCCACA | -1.32 |
| TAATGCTCTGAGTCTTTGCTCT | -0.39 |

Each of the following entries comes with a recorded value; kindly state sensor-assay potency score (higher = more potent) for each.
1. TACAGGATTAGAGAGAGTGGGG
2. TTGTCTTCTAGGACTTGGGCTG
3. TTCTTGAACACATTCTTGTAGT
4. ATCCTTCTCAGAGTCTACCAGC
5. TAGTTCTTTGCATTGACATTGA

Given back:
-0.52
-0.338
0.249
-1.1
-0.428

* * *

system: GRIK2
test_protocol: pooled miR-30 sensor sort-seq; sequence = guide strand
reported_conditions: shRNA
Tag: 1 if measured sensor-assay potency score (higher = more potent) is not below -0.4, 0 if it is.

| sequence | label_value |
| --- | --- |
| TCGAACATAGGTAATAGCCAGT | 0 |
| TTTGTTTAGCTAAATCATCAGC | 0 |
| TTTATGTCGATTACACTGCAAG | 0 |
| TTGACCAGCACTGACTGCCTTC | 1 |
| TTGTCCATTGGCATCATCCTGG | 1 |
| TACACTGCAAGGAACTGACTGT | 1 |
| TAGAGCAGCATCAGTCGTCATA | 0 |
| TTTGTTGTCTGACACCTGGTGC | 1 |

Consider now this further sequence.
Asked: Determine whether this sequence has sensor-assay potency score (higher = more potent) no lower than -0.4: TTCTTCATTACTTTTGACCAGC
Given back: 0

* * *

system: C10orf27
test_protocol: pooled miR-30 sensor sort-seq; sequence = guide strand
reported_conditions: shRNA
Quick rule for you: sensor-assay potency score (higher = more potent) at -0.2 or higher means T, lower means F.

Reference set (3 entries):
| sequence | label_value |
| --- | --- |
| TTTAGTAAGAGTTTTCACGGTA | T |
| TTGGATGTGGGTCACGTGCTGG | F |
| ATATCTTCGTTTTCTTCGGGGA | T |

Asked: Is it the case that TTCTTCTCCAGTTTCAGCTCAG has sensor-assay potency score (higher = more potent) reaching or exceeding -0.2?
Given back: F

Asked: Is reported sensor-assay potency score (higher = more potent) greater than or equal to -0.2 here: TTTTGTAAAAGGTGATATCTTC
Given back: T

Asked: Does the sequence TATCTTCGTTTTCTTCGGGGAT have recorded sensor-assay potency score (higher = more potent) that is -0.2 or more?
Given back: F

Asked: Is sensor-assay potency score (higher = more potent) for TCGAAATCCACAATCCCTGGGA at or above -0.2?
Given back: T

Asked: Check this sequence for sensor-assay potency score (higher = more potent) at or above -0.2: TTCTTCTCTGTGTTCTGGCTTG
Given back: F

Asked: Confirm if sensor-assay potency score (higher = more potent) reported for the sequence TTCGATGTCTTCTTCTCTGTGT is -0.2 or above.
Given back: T

The measurements presented in this section are drawn from the OligoGym collection.
